Biological target: HIV-1 Env of isolate MGRM-D-008 (subtype D) (HIV-1)
Experiment: cell-based or functional assay
READOUT_NAME: IC50 (neutralization)

Observe how each entry below is paired with its result.
PGT-125 (antibody, V domains shown) VH: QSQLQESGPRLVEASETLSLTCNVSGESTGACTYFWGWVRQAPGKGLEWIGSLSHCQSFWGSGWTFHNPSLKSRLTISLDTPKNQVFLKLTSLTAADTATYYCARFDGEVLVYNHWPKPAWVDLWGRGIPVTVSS VL: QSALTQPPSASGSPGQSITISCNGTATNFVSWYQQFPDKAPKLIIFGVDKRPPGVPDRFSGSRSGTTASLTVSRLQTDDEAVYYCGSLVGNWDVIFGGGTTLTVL :: > 50 µg/mL
PGT-123 (antibody, V domains shown) VH: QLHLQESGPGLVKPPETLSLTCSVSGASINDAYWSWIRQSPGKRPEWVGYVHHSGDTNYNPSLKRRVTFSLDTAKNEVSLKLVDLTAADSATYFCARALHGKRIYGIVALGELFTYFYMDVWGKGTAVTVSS VL: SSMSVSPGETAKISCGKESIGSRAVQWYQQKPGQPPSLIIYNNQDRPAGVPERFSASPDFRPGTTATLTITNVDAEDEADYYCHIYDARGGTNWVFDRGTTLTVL :: > 50 µg/mL
PGT-126 (antibody, V domains shown) VH: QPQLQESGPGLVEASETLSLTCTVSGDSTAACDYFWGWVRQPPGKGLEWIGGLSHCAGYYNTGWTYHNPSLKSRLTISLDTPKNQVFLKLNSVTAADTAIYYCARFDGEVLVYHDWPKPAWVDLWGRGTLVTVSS VL: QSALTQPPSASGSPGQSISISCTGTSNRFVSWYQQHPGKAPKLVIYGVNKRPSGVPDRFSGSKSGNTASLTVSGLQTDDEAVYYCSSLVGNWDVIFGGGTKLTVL :: 43.1 µg/mL

Q. Check the records and state IC50 (neutralization) for PGT-131 (antibody, V domains shown) VH: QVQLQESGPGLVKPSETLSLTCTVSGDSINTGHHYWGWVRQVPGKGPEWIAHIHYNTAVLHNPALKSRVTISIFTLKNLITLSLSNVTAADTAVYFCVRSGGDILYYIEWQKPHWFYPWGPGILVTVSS VL: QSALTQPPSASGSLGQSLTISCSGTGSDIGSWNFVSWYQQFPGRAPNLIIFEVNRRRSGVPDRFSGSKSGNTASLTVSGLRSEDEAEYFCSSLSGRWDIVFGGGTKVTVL
A. > 50 µg/mL
